Assay: Beagle dog PK study 1 (IV and PO, propylene glycol-based formulation)
Assay type: in vivo
Conditions: beagle, dog, plasma, po, 5 mg/kg, PK study 1, PO 5 mg/kg, 4 h, Test Animal 3; read-out: Plasma concentration
Protocol: The purpose of this study was to examine the pharmacokinetics of Example 101 in beagle dogs. […] An oral PK study was also undertaken in Lewis rats—see Experimental Method C. Body weight was recoded prior to dosing, and detailed clinical observations were made prior to dosing and throughout the study, as needed. Subsequently, 17.320 mL Vitamin E TPGS was added, and the solution was vortexed and sonicated. Then, 51.960 mL water was added, and solution was then heated. […]
metric: concentration at 4 h

Tell me the measured concentration at 4 h of CNC(=O)c1[nH]c(C(=O)NC2CCC2)cc1O[C@@H](C)c1ccccc1 [Example 101] , please. 254 ng/mL

* * *

experiment: Beagle dog PK study 1 (IV and PO, propylene glycol-based formulation); format: in vivo; conditions: beagle, dog, plasma, po, 5 mg/kg, PK study 1, PO 5 mg/kg, 2 h, Test Animal 1; read-out: Plasma concentration
metric: concentration at 2 h (ng/mL)
Field format: number, assumed ng/mL, no unit text.

Recorded concentration at 2 h of `CNC(=O)c1[nH]c(C(=O)NC2CCC2)cc1O[C@@H](C)c1ccccc1` , please. 1130

* * *

assay: Sprague-Dawley rat pharmacokinetics (IV and PO); format: in vivo; conditions: male Sprague-Dawley rats, IV 1 mg/kg, cassette mode, Method 1
metric: IV T1/2 (min)
Please reply with the bare figure in min and do not write the unit itself.

Reference set, count: 3
CNC(=O)c1[nH]c(C(=O)NC2CCC2)cc1OC(C)c1ccc(Cl)cc1 (single isomer, unassigned) [Example 27] | 24
CCNC(=O)c1cc(OC(C)c2ccc(Cl)cc2F)c(C(=O)NC)[nH]1 (single isomer, unassigned) [Example 41] | 18
CNC(=O)c1[nH]c(C(=O)NC2CCC2)cc1OC(C)c1ccccc1F (single isomer, unassigned) [Example 43] | 30

What IV T1/2 value was documented for this compound, CNC(=O)c1[nH]c(C(=O)NC2CCC2)cc1OC(C)c1ccc(Cl)cc1F (single isomer, unassigned) [Example 35] ? 30

Quick check: IV T1/2 of CNC(=O)c1[nH]c(C(=O)NC2CC2)cc1O[C@@H](C)c1ccccc1F [Example 59] ? 66

Quick one: IV T1/2 for CCNC(=O)c1cc(OC(C)c2ccc(Cl)cc2)c(C(=O)NC)[nH]1 (single isomer, unassigned) [Example 18] ? 66

# lookup: IV T1/2 of CCNC(=O)c1cc(OC(C)c2ccccc2F)c(C(=O)NC)[nH]1 (single isomer, unassigned) [Example 20] 24

Give the measured IV T1/2 of CNC(=O)c1[nH]c(C(=O)N[C@H]2CC[C@H](O)CC2)cc1OC(C)c1ccc(Cl)cc1F (single isomer, unassigned) [Example 38] . 84

If you can, please state the reported IV T1/2 value of CNC(=O)c1[nH]c(C(=O)NC2COC2)cc1OC(C)c1ccc(Cl)cc1 (single isomer, unassigned) [Example 31] . 36

* * *

assay: Beagle dog PK study 1 (IV and PO, propylene glycol-based formulation); type: in vivo; settings: beagle, dog, plasma, po, 5 mg/kg, PK study 1, PO 5 mg/kg, 4 h, Test Animal 2; read-out: Plasma concentration
metric: concentration at 4 h (ng/mL)
Lab book: enter the figure in ng/mL, no units written.

May I ask what concentration at 4 h has been recorded for CNC(=O)c1[nH]c(C(=O)NC2CCC2)cc1O[C@@H](C)c1ccccc1 [Example 101] ? 103
